# microsomal CLint at 1 µM listing for each entry below
- Protocol summary: Intrinsic clearance in human liver microsomes at 1 uM after 30 mins in presence of NADPH
- Assay type: ADME, Microsome
- Applied conditions: read-out: CLH
Lab book: enter the figure in µL/min/mg, no units written.

{"columns": ["Compound string", "Experimental result"],
 "data": [
  ["Cc1nc2cccc(-c3cc4c([nH]3)CNC4=O)c2nc1NC(C)(C)C", 45],
  ["Cc1nc2cccc(-c3[nH]c4c(c3Cl)C(=O)N[C@@H]4C)c2nc1NC(C)(C)C", 111],
  ["Cc1nc2cccc(-c3cc4c([nH]3)C3(CC3)NC4=O)c2nc1NC(C)(C)C", 35],
  ["Cc1nc2ccc(F)c(-c3cc4c([nH]3)CCNC4=O)c2nc1NC(C)(C)C", 66],
  ["Cc1nc2cccc(-c3cc4c([nH]3)[C@@H](C)NC4=O)c2nc1NC(C)(C)C", 37]
]}

Q. Supply measured microsomal CLint at 1 µM of `Cc1nc2cccc(-c3cc4n(c3)CCNC4=O)c2nc1NC(C)(C)C` in your reply.
A. 85

Q. Please look at this compound and report its microsomal CLint at 1 µM: `Cc1nc2ccc(F)c(-c3cc4c([nH]3)[C@@H](C)NC4=O)c2nc1NC(C)(C)C`
A. 35

Q. Name the recorded microsomal CLint at 1 µM of the item `Cc1nc2cccc(-c3cc4c(s3)C(=O)NC4)c2nc1NC(C)(C)C` in your answer.
A. 104

Q. Check the records and state microsomal CLint at 1 µM for `Cc1nc2cccc(-c3cc4c([nH]3)[C@H](C)NC4=O)c2nc1NC(C)(C)C`
A. 89

Q. State, in one line, measured microsomal CLint at 1 µM of `Cc1nc2cccc(-c3cc4c([nH]3)CCCNC4=O)c2nc1NC(C)(C)C`
A. 67

Q. Supply measured microsomal CLint at 1 µM of `Cc1nc2cccc(-c3cc4c([nH]3)CCNC4=O)c2nc1NC(C)(C)C` in your reply.
A. 70

Q. Answer with reported microsomal CLint at 1 µM of `Cc1nc2cccc(-c3cc4c(s3)CNC4=O)c2nc1NC(C)(C)C`
A. 102

###

Entries with reported IC50 on Serine/threonine-protein kinase pim-1 (Homo sapiens, UniProt P11309)
Sequence (P11309 whole entry): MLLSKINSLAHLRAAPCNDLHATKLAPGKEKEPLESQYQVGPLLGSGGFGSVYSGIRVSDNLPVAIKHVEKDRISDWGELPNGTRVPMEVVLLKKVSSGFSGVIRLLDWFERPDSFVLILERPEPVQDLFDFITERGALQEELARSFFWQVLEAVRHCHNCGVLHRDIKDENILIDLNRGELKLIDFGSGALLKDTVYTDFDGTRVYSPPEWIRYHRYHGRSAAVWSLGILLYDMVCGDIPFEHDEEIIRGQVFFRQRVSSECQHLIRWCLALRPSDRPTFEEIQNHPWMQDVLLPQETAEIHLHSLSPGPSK
Unit nM implied. Number only.

Worked cases, answers included:
{"columns": ["Compound string", "IC50 [nM]"],
 "data": [
  ["C[C@H]1NC(=O)c2cc(-c3cccc4c(=O)n(C)c(N(C)C(C)(C)C)nc34)[nH]c21", 1.5],
  ["Cc1nc2cccc(-c3cc4c(s3)C(=O)NC4)c2nc1NC(C)(C)C", 2.5],
  ["C[C@H]1NC(=O)c2cc(-c3cccc4c3N=C(NC(C)(C)C)N(C)S4(=O)=O)[nH]c21", 6.5]
]}

Q. Please report IC50 with Serine/threonine-protein kinase pim-1 (Homo sapiens, UniProt P11309) for item `Cc1nc2cccc(-c3cc4c([nH]3)C3(CCOCC3)NC4=O)c2nc1NC(C)(C)C` .
A. 44

###

- Protocol summary: Intrinsic clearance in rat hepatocytes assessed per 10^6 cells
- Assay type: ADME, cell-based, Hepatocyte
- Applied conditions: read-out: CLH
Measured attribute: hepatocyte CLint (µL/min/1e6 cells)
Give just the numeric value; µL/min/1e6 cells need not be written.

Q. Return value of hepatocyte CLint for input `Cc1nc2ccc(F)c(-c3cc4c([nH]3)CCNC4=O)c2nc1NC(C)(C)C` , no commentary.
A. 39

###

- Protocol summary: Aqueous solubility of the compound in PBS at pH 7.4 after 1 hr by LC/MS analysis
- Type: physicochemical
Kindly return T if reported solubility at 1 h is no lower than 60 µM; return F if it is lower.

Answered examples (2):
{"columns": ["Compound string", "Class label"],
 "data": [
  ["Cc1nc2cccc(-c3cc4c([nH]3)[C@@H](C)NC4=O)c2nc1NC(C)(C)C", "T"],
  ["C[C@H]1NC(=O)c2cc(-c3cccc4c(=O)n(C)c(N5CCCC5(C)C)nc34)[nH]c21", "F"]
]}

Q. Kindly determine if solubility at 1 h recorded for `C[C@H]1NC(=O)c2cc(-c3c(F)ccc4c(=O)n(C)c(NC(C)(C)C)nc34)[nH]c21` is above or exactly 60 µM.
A. F

Q. Does the reported solubility at 1 h for `C[C@H]1NC(=O)c2cc(-c3cccc4c(=O)n(C)c(NC(C)(C)CO)nc34)[nH]c21` fall at or above the 60 µM mark?
A. T

Q. Exam item: decide whether the reported solubility at 1 h for `C[C@H]1NC(=O)c2cc(-c3cccc4c(=O)n(C)c(NC5(C)CC5)nc34)[nH]c21` is at least 60 µM.
A. F

###

- Study system: Serine/threonine-protein kinase pim-2 (Homo sapiens)
- Sequence (Q9P1W9 whole entry): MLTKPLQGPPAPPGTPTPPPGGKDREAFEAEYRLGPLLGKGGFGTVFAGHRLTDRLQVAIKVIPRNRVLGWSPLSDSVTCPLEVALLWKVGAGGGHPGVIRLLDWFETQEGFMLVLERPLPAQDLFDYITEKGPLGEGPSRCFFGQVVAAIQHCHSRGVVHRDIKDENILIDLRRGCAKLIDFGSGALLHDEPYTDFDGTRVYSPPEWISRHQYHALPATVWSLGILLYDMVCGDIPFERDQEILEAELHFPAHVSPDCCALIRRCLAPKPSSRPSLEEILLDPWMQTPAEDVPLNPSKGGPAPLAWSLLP
- Protocol summary: Inhibition of full length recombinant Pim-2 (unknown origin) assessed as reduction in phosphorylation of biotinylated-BAD peptide at Serine 112 residue preincubated for 30 mins followed by substrate addition for 1 hr by HTRF assay
We label by threshold. Values of IC50 strictly beneath 1 nM are label 1. Values of 1 nM and up are label 0.

{"columns": ["Compound string", "Class label"],
 "data": [
  ["Cc1nc2cccc(-c3cc4n(c3)CCNC4=O)c2nc1NC(C)(C)C", "label 0"],
  ["Cc1nc2ccc(F)c(-c3cc4c([nH]3)CCNC4=O)c2nc1NC(C)(C)C", "label 1"],
  ["Cc1c(NC(C)(C)C)nc2c(-c3cc4c([nH]3)[C@@H](C)NC4=O)cccn2c1=O", "label 0"]
]}

Would you kindly look at the next entry?
Q. Strictly below 1 nM in IC50? `Cc1nc2cccc(-c3cc4c([nH]3)C3(CCOCC3)NC4=O)c2nc1NC(C)(C)C`
A. label 0

###

- Protocol summary: Oral bioavailability in rat at 5 mg/kg
- Assay type: ADME, organism-based
- Applied conditions: in vivo
Measured attribute: bioavailability (%)
Note: unit % is implicit; provide only the numeric part.

Here's what some known entries look like.
{"columns": ["Compound string", "bioavailability, %"],
 "data": [
  ["Cc1nc2ccc(F)c(-c3cc4c([nH]3)[C@@H](C)NC4=O)c2nc1NC(C)(C)C", 54],
  ["C[C@H]1NC(=O)c2cc(-c3cccc4c(=O)n(C)c(NC(C)(C)C)nc34)[nH]c21", 39]
]}

Query molecule follows.
Q. Give the reported value of bioavailability for this record: `C[C@H]1NC(=O)c2cc(-c3cccc4c(=O)n(C)c(NC5(C)CC5)nc34)[nH]c21`
A. 5

###

Each entry below carries its recorded microsomal CLint at 1 µM.
- Protocol summary: Intrinsic clearance in human liver microsomes at 1 uM after 30 mins in presence of NADPH
- Format: ADME, Microsome
- Applied conditions: read-out: CLH

{"columns": ["Compound string", "microsomal CLint at 1 µM"],
 "data": [
  ["Cc1nc2cccc(-c3cc4c([nH]3)[C@@H](CCN)NC4=O)c2nc1NC(C)(C)C", "< 14 µL/min/mg"],
  ["C[C@H]1NC(=O)c2cc(-c3c(F)ccc4c(=O)n(C)c(NC(C)(C)C)nc34)[nH]c21", "< 14 µL/min/mg"]
]}

We next turn to a different compound, shown below.
Q. Name the recorded microsomal CLint at 1 µM of the compound listed here: `Cc1nc2cccc(-c3cc4c([nH]3)C3(CCOCC3)NC4=O)c2nc1NC(C)(C)C`
A. < 14 µL/min/mg
